measurement parameters: in n-propyl acetate, 293.15 K
quantity name: solubility (mole fraction)

> print(dat)
              item.smiles  quantitative.result
1  c1ccc2c(c1)Cc1ccccc1-2               0.0862

---

measurement parameters: in isobutyl acetate, 283.15 K
quantity name: solubility (mole fraction)

> print(dat)
              item.smiles  quantitative.result
1  c1ccc2c(c1)Cc1ccccc1-2               0.0611

---

measurement parameters: in THF, 298.15 K
quantity name: solubility (mole fraction)

> print(dat)
              item.smiles               quantity.name  quantitative.result
1  c1ccc2c(c1)Cc1ccccc1-2  solubility (mole fraction)                0.182

---

measurement parameters: in ethyl acetate, 313.15 K
quantity name: solubility (mole fraction)

> print(dat)
              item.smiles  quantitative.result
1  c1ccc2c(c1)Cc1ccccc1-2                0.139

---

measurement parameters: in ethyl formate, 318.15 K
quantity name: solubility (mole fraction)

> print(dat)
              item.smiles  result
1  c1ccc2c(c1)Cc1ccccc1-2   0.133

---

measurement parameters: in methyl acetate, 278.15 K
quantity name: solubility (mole fraction)

> print(dat)
              item.smiles               quantity.name  quantitative.result
1  c1ccc2c(c1)Cc1ccccc1-2  solubility (mole fraction)               0.0374

---

measurement parameters: in isobutyl acetate, 278.15 K
quantity name: solubility (mole fraction)

> print(dat)
              item.smiles  quantitative.result
1  c1ccc2c(c1)Cc1ccccc1-2               0.0546

---

measurement parameters: in ethyl formate, 288.15 K
quantity name: solubility (mole fraction)

> print(dat)
              item.smiles  quantitative.result
1  c1ccc2c(c1)Cc1ccccc1-2                0.046

---

measurement parameters: in isopropyl acetate, 313.15 K
quantity name: solubility (mole fraction)

> print(dat)
              item.smiles  quantitative.result
1  c1ccc2c(c1)Cc1ccccc1-2                0.127

---

measurement parameters: in acetone, 308.15 K
quantity name: solubility (mole fraction)

> print(dat)
              item.smiles               quantity.name  quantitative.result
1  c1ccc2c(c1)Cc1ccccc1-2  solubility (mole fraction)               0.0931

---

measurement parameters: in methyl acetate, 303.15 K
quantity name: solubility (mole fraction)

> print(dat)
              item.smiles               quantity.name  quantitative.result
1  c1ccc2c(c1)Cc1ccccc1-2  solubility (mole fraction)               0.0856

---

measurement parameters: in acetonitrile, 313.15 K
quantity name: solubility (mole fraction)

> print(dat)
              item.smiles  quantitative.result
1  c1ccc2c(c1)Cc1ccccc1-2               0.0345

---

measurement parameters: in acetonitrile, 303.15 K
quantity name: solubility (mole fraction)

> print(dat)
              item.smiles  quantitative.result
1  c1ccc2c(c1)Cc1ccccc1-2               0.0235

---

measurement parameters: in ethanol, 293.15 K
quantity name: solubility (mole fraction)

> print(dat)
              item.smiles               quantity.name  quantitative.result
1  c1ccc2c(c1)Cc1ccccc1-2  solubility (mole fraction)              0.00669
